The next entries give measured log10 of 2PT for Plasma.
Give log10 of 2PT, with 2PT taken in µM.

What value of log10 of 2PT on Plasma does CS(=O)(=NC(=O)CN1CCC(O)CC1)c1ccc(C(=O)Nc2ccc(Cl)cc2C(=O)Nc2ccc(Cl)cn2)cc1 (stereo unspecified) have?
0.33

What value of log10 of 2PT on Plasma does CC(C)NCC(=O)N=S(C)(=O)c1ccc(C(=O)Nc2ccc(Cl)cc2C(=O)Nc2ccc(Cl)cn2)cc1 (stereo unspecified) have?
-0.02

What value of log10 of 2PT on Plasma does CNCC(=O)N=S(C)(=O)c1ccc(C(=O)Nc2c(OC)cc(Cl)cc2C(=O)Nc2ccc(Cl)cn2)cc1 (stereo unspecified) have?
-0.24

What value of log10 of 2PT on Plasma does COCC(=O)N=S(C)(=O)c1ccc(C(=O)Nc2ccc(Cl)cc2C(=O)Nc2ccc(Cl)cn2)cc1 (stereo unspecified) have?
0.48

What value of log10 of 2PT on Plasma does CS(=O)(=NC(=O)CN1CCC(C(N)=O)CC1)c1ccc(C(=O)Nc2ccc(Cl)cc2C(=O)Nc2ccc(Cl)cn2)cc1 (stereo unspecified) have?
0.40

What value of log10 of 2PT on Plasma does CC(C)N(CC(=O)N=S(C)(=O)c1ccc(C(=O)Nc2ccc(Cl)cc2C(=O)Nc2ccc(Cl)cn2)cc1)C(C)C (stereo unspecified) have?
0.16

What value of log10 of 2PT on Plasma does C[S+](=N)([O-])c1ccc(C(=O)Nc2ccc(Cl)cc2C(=O)Nc2ccc(Cl)cn2)cc1 (stereo unspecified) have?
0.86

What value of log10 of 2PT on Plasma does CCN(CC)CCN=S(C)(=O)c1ccc(C(=O)Nc2ccc(Cl)cc2C(=O)Nc2ccc(Cl)cn2)cc1 (stereo unspecified) have?
0.25

What value of log10 of 2PT on Plasma does CC(=O)N=[S+](C)([O-])c1ccc(C(=O)Nc2ccc(Cl)cc2C(=O)Nc2ccc(Cl)cn2)cc1 (stereo unspecified) have?
0.85

What value of log10 of 2PT on Plasma does CCN(CC)CC(=O)N=S(C)(=O)c1ccc(C(=O)Nc2ccc(Cl)cc2C(=O)Nc2ccc(Cl)cn2)cc1 (stereo unspecified) have?
-0.17

What value of log10 of 2PT on Plasma does COc1cc(Cl)cc(C(=O)Nc2ccc(Cl)cn2)c1NC(=O)c1ccc(S(C)(=O)=NC(=O)CN2CCCC2)cc1 (stereo unspecified) have?
-0.28

What value of log10 of 2PT on Plasma does O=C(NC[C@H]1CN(c2ccc(N3CCOCC3=O)cc2)C(=O)O1)c1ccc(Cl)s1 [RIVAROXABAN] have?
-0.41

What value of log10 of 2PT on Plasma does CS(=O)(=NC#N)c1ccc(C(=O)Nc2ccc(Cl)cc2C(=O)Nc2ccc(Cl)cn2)cc1 (stereo unspecified) have?
0.36

What value of log10 of 2PT on Plasma does CS(=O)(=NC(N)=O)c1ccc(C(=O)Nc2ccc(Cl)cc2C(=O)Nc2ccc(Cl)cn2)cc1 (stereo unspecified) have?
0.61

What value of log10 of 2PT on Plasma does CCNCC(=O)N=S(C)(=O)c1ccc(C(=O)Nc2ccc(Cl)cc2C(=O)Nc2ccc(Cl)cn2)cc1 (stereo unspecified) have?
-0.09

What value of log10 of 2PT on Plasma does CCN(CC)CC(=O)N=S(C)(=O)c1ccc(C(=O)Nc2c(OC)cc(Cl)cc2C(=O)Nc2ccc(Cl)cn2)cc1 (stereo unspecified) have?
-0.04
